Assign pIC50 to each entry below.
test system: HeLa cells; assay: HeLa cell inhibition assay (SRB cell viability); format: cell-based; settings: Homo sapiens, HeLa, 72 h, IC50 range
pIC50: −log10 of the molar value.

[ask] What value of measured pIC50 is listed for O=C(NO)c1cnc(N2CC3C(C2)C3NCc2cccc(-c3ccccc3)c2)nc1 (stereo not drawn) ?
[reply] > 6.48

[ask] Which measured pIC50 value corresponds to O=C(CCCOc1ccccc1)NC1C2CN(c3ncc(C(=O)NO)cn3)CC21 (stereo not drawn) ?
[reply] 5.48 to 6.48

[ask] Which measured pIC50 value corresponds to O=C(NO)c1cnc(N2CC3C(CNCc4ccc5cc(F)ccc5n4)C3C2)nc1 (stereo not drawn) ?
[reply] 5.48 to 6.48

[ask] Given the entry O=C(CCCCCc1ccccc1)NC1C2CN(c3ncc(C(=O)NO)cn3)CC21 (stereo not drawn) , report its measured pIC50.
[reply] 5.48 to 6.48

[ask] Return reported pIC50; argument: O=C(NO)c1cnc(N2CC3C(C2)C3NS(=O)(=O)c2cccs2)nc1 (stereo not drawn)
[reply] < 5.48

[ask] What value of pIC50 has been reported for the following compound? O=C(NO)c1cnc(N2CC3CN(Cc4ccc(Cl)cc4)CC3C2)nc1 (stereo not drawn)
[reply] 5.48 to 6.48

[ask] Report pIC50 for O=C(NO)c1cnc(N2CC3C(C2)C3NCCC(c2ccccc2)c2ccccc2)nc1 (stereo not drawn) please.
[reply] 5.48 to 6.48

[ask] Name the recorded pIC50 for O=C(NO)c1cnc(N2CC3C(CNCc4ccccc4)C3C2)nc1 (stereo not drawn) .
[reply] 5.48 to 6.48

[ask] Can you look up the measured pIC50 of O=C(NO)c1cnc(N2CC3C(C2)C3NCc2ccc3ccccc3n2)nc1 (stereo not drawn) for me?
[reply] > 6.48

[ask] So what's the measured pIC50 for this one? O=C(NO)c1cnc(N2CC3C(CNCc4ccc(Cl)cc4)C3C2)nc1 (stereo not drawn)
[reply] 5.48 to 6.48

[ask] Value lookup for pIC50; key = O=C(NO)c1cnc(N2CC3C(C2)C3NS(=O)(=O)c2ccc(OC(F)(F)F)cc2)nc1 (stereo not drawn)
[reply] 5.48 to 6.48

[ask] So what's the measured pIC50 for this one? O=C(NO)c1cnc(N2CC3C(C2)C3Nc2nccc3ccccc23)nc1 (stereo not drawn)
[reply] > 6.48

[ask] Look up pIC50: O=C(NO)c1cnc(N2CC3C(C2)C3NCc2ccc(Oc3ccccc3)cc2)nc1 (stereo not drawn)
[reply] > 6.48

[ask] Please give the measured pIC50 for this compound: O=C(NO)c1cnc(N2CC3C(C2)C3N(Cc2ccc3ccccc3c2)Cc2ccc3ccccc3c2)nc1 (stereo not drawn)
[reply] < 5.48

[ask] Data request, read-out pIC50, for O=C(NO)c1cnc(N2CC3C(C2)C3N2CCCCC2)nc1 (stereo not drawn)
[reply] < 5.48

[ask] // query pIC50 value for entry O=C(NO)c1cnc(N2CC3C(C2)C3NCCc2ccccc2)nc1 (stereo not drawn)
[reply] 5.48 to 6.48

[ask] Which value of pIC50 has been reported for O=C(NO)c1cnc(N2CC3C(C2)C3NCc2ccc(Cl)cc2)nc1 (stereo not drawn) in the records?
[reply] > 6.48

[ask] Need pIC50, item O=C(NO)c1cnc(N2CC3CN(S(=O)(=O)c4ccc5ccccc5c4)CC3C2)nc1 (stereo not drawn)
[reply] 5.48 to 6.48
